Reference for the values: paper PMC3715451

Biological target: Cytochrome c Peroxidase Gateless cavity (P190G/W191G/Δ192-3) (Saccharomyces cerevisiae, UniProt P00431, A260G/D219G/DEL257-258/P257G/T120I/W258G)
Construct: made in house
Sequence (P00431 other isoform, or with tags, fused parts or gaps T120I/D219G/DEL257-258/A260G): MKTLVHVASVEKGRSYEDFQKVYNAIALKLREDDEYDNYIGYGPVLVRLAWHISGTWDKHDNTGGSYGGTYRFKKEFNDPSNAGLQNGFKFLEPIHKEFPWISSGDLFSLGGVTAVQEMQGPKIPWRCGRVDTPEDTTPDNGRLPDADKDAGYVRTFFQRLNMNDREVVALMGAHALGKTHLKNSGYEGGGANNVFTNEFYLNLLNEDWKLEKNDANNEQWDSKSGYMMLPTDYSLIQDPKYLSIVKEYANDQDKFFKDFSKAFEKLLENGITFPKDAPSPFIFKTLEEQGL
Assay: Binding to the CcP Gateless cavity by titration of the UV-Vis Heme Soret band (or ITC)
Details: open Gateless cavity; read-out: affinity in Gateless
pKd: −log10 of the molar value.
MEASURED METRIC: pKd

[[record]]
item_smiles = "Oc1cccc(F)c1O"
quantitative_result = 2.51


###

Target: CcP Gateless (Saccharomyces cerevisiae, UniProt P00431, A260G/D219G/DEL257-258/P257G/T120I/W258G)
Construct: made in house
Assay: Low C-value Isothermal Titration Calorimetry against CcP Gateless
Assay type: binding
Details: ITC, 283K; † approximate value from partial ITC curves
Reported values of TΔS for individual entries
MEASURED METRIC: TΔS (kcal/mol)

[[record]]
item_smiles = "Nc1ccnc(N)n1"
quantitative_result = -1.14

[[record]]
item_smiles = "Cc1cnc(N)s1"
quantitative_result = 0.21

[[record]]
item_smiles = "Nc1cccc(N)n1"
quantitative_result = -3.31

